Reference source for all entries: patent US20260070917A1

assayed-target: CDK2 (Homo sapiens, UniProt P24941)
Construct: host or cells: HEK293-CDK2-Hibit
experiment-summary: HiBit Assay Protocol for CDK2 (HIBIT protein quantification, degradation)
Type: cell-based
condition-context: HEK293-CDK2-Hibit cells, compound treatment for 6 hours, ABS DC50
# DC50 per record follows
Express your answer in nM, writing the number without its unit.

CC1CCCC1N1C(=O)C2(CC2)c2cnc(NC3CCN(S(=O)(=O)N4CC5(CCCN(C6CCCN(c7cccc8c7n(C)c(=O)n8C7CCC(=O)NC7=O)C6)C5)C4)CC3)nc21 (centres unmarked) [Compound 135]	16.3
Cn1c(=O)n(C2CCC(=O)NC2=O)c2ccc(C3CCN(Cc4cccc(S(=O)(=O)N5CCC(Nc6ncc7c(n6)N([C@@H]6CCC[C@@H](O)C6)C(=O)C76CC6)CC5)c4)CC3)cc21 (some centres unmarked) [Compound 147]	11
Cn1nc(N2CCC(=O)NC2=O)c2ccc(C3CCN(Cc4cccc(S(=O)(=O)N5CCC(Nc6ncc7c(n6)N([C@@H]6CCC[C@@H](O)C6)C(=O)C76CC6)CC5)c4)CC3)c(F)c21 [Compound 175]	4.19
Cn1c(=O)n(C2CCC(=O)NC2=O)c2cccc(N3CCN(Cc4cccc(S(=O)(=O)N5CCC(Nc6ncc7c(n6)N([C@@H]6CCC[C@@H](O)C6)C(=O)C76CC6)CC5)c4)CC3)c21 (some centres unmarked) [Compound 181]	6.02

// moving on: another record for DC50
Fill blank: measured DC50 of the compound C[C@H]1CN(c2ccc3c(N4CCC(=O)NC4=O)nn(C)c3c2)CCN1[C@@H](C)c1cccc(S(=O)(=O)N2CC[C@H](Nc3ncc4c(n3)N([C@@H]3CCC[C@@H](O)C3)C(=O)C43CC3)[C@H](F)C2)c1 [Compound 194] is ____. 3.86

---

assayed-target: CCNE1 (Homo sapiens, UniProt P24864)
Construct: host or cells: HEK293-CCNE1-Hibit
Sequence (P24864 whole entry): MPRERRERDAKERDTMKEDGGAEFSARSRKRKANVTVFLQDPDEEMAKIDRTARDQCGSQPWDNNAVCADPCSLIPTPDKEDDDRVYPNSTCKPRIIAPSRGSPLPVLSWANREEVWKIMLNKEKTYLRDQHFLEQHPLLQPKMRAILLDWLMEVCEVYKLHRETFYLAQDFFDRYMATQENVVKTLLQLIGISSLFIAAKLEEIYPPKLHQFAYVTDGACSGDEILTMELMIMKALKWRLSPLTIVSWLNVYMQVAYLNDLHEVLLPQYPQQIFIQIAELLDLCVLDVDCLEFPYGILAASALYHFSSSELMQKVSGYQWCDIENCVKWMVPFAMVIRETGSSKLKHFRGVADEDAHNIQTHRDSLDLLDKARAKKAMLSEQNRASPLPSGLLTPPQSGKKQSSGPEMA
experiment-summary: HiBit Assay Protocol for CCNE1 (HIBIT protein quantification, degradation)
Format: cell-based
condition-context: HEK293-CCNE1-Hibit cells, compound treatment for 6 hours
Please note: CCNE1 HIBIT Protein Quantification Maximum exactly at 30% is N. Only values below 30% get Y.

CC1CCCC1N1C(=O)C2(CC2)c2cnc(NC3CCN(S(=O)(=O)N4CC5(CCCN(C6CCN(c7cccc8c7n(C)c(=O)n8C7CCC(=O)NC7=O)CC6)C5)C4)CC3)nc21 (centres unmarked)	N
CC(C)[C@@H]1CN([C@H](C)c2cccc(S(=O)(=O)N3CC[C@H](Nc4ncc5c(n4)N([C@@H]4CCC[C@@H](O)C4)C(=O)C54CC4)[C@H](F)C3)c2)CCN1c1ccc2c(N3CCC(=O)NC3=O)nn(C)c2c1	N
CC1CCCC1N1C(=O)C2(CC2)c2cnc(NC3CCN(S(=O)(=O)C4CCCN(C(=O)CCCCCCCc5cccc6c5n(C)c(=O)n6C5CCC(=O)NC5=O)C4)CC3)nc21 (centres unmarked)	N

I'd appreciate it if you could check whether CC1CCCC1N1C(=O)C2(CC2)c2cnc(NC3CCN(S(=O)(=O)N4CC5(CCCN(C(=O)CCCCCc6cccc7c6n(C)c(=O)n7C6CCC(=O)NC6=O)C5)C4)CC3)nc21 (centres unmarked) has CCNE1 HIBIT Protein Quantification Maximum smaller than 30%. Y

Try this compound too: CC1CCCC1N1C(=O)C2(CC2)c2cnc(NC3CCN(S(=O)(=O)N4CCN(CC5CCN(c6cccc7c6n(C)c(=O)n7C6CCC(=O)NC6=O)CC5)CC4)CC3)nc21 (centres unmarked) Y
